Tested on: Plasmodium falciparum
Assay: Antimalarial activity against Plasmodium falciparum assessed as inhibition of parasite growth
Format: functional, organism-based
metric: IC50 (µM)
Dear colleague, please return just the value in µM, with no unit written.

Sample records with IC50:
COc1ccc(-n2cc(-c3nc4ccccc4c(=O)[nH]3)nn2)cc1    2.63
O=c1[nH]c(-c2cn(-c3ccccc3F)nn2)nc2ccccc12    2.21

Param item = O=c1[nH]c(-c2cn(-c3ccc(Br)cc3)nn2)nc2ccccc12 ; retrieve measured IC50. 1.96

====

We begin with a simple list: items and their reported pIC50.
Test system: Plasmodium falciparum
Assay: Antimalarial activity against Plasmodium falciparum assessed as inhibition of parasite growth
Format: functional, organism-based
API: returns pIC50 as number; meaning -log10 of concentration in mol/L.

O=c1[nH]c(-c2cn(-c3ccc([N+](=O)[O-])cc3)nn2)nc2ccccc12    5.70
O=c1[nH]c(-c2cn(-c3ccc(Cl)cc3)nn2)nc2ccccc12    5.72
Cc1cc(C)c(-n2cc(-c3nc4ccccc4c(=O)[nH]3)nn2)c(C)c1    5.54
C=C[C@H]1CN2CC[C@H]1C[C@H]2[C@H](O)c1ccnc2ccc(OC)cc12    6.08
Cc1ccc(-n2cc(-c3nc4ccccc4c(=O)[nH]3)nn2)c([N+](=O)[O-])c1    5.63
Cc1ccc(-n2cc(-c3nc4ccccc4c(=O)[nH]3)nn2)cc1    5.51
O=c1[nH]c(-c2cn(-c3cccc(Cl)c3)nn2)nc2ccccc12    5.56
CCc1ccc(-n2cc(-c3nc4ccccc4c(=O)[nH]3)nn2)cc1    5.49

Param item = O=c1[nH]c(-c2cn(-c3ccc(F)cc3)nn2)nc2ccccc12 ; retrieve measured pIC50. 5.71

Param item = O=c1[nH]c(-c2cn(-c3ccccc3)nn2)nc2ccccc12 ; retrieve measured pIC50. 5.59

Value source: ChEMBL document CHEMBL5576059
